Target: T1, IL1-RAP (antigen of the kinetic measurements of Tables 5A and 5B) (human, UniProt Q9NPH3 21-359, limits assumed)
T1 sequence: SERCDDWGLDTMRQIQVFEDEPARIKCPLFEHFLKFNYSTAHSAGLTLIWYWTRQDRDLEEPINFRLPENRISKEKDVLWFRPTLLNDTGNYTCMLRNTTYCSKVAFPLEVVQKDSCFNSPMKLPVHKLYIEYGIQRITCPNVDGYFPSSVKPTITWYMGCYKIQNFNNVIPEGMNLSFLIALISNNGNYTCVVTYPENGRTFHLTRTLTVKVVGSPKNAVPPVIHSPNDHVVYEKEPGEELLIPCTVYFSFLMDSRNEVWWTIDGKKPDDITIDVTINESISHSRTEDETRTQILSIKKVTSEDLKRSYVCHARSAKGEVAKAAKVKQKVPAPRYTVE
Experiment: kinetics, Table 5B; method and antigen form not stated
I'd be grateful if you could share measured koff for these entries.

Inquiry: What does the data say about its koff? Entry: chimeric 54.9D7 (antibody, V domains shown, Chimeric antibody; also called Chi54.9D7) VH: HVQLQQSGPELVRPGASVKLSCKASGYIFITYWMNWVKQRPGQGLEWVGQIFPASGTTYYNELFEGKATLTVDTSSNTAYMHLTSLTSEDSAVYYCARTDFYRYDGGYALDYWGQGTSLTVSS VL: DIVLTQSPISLAVFLGQRATISCRASQSVSTSGYSSMHWYQQKAGQPPKLLIKYASDLESGVPVRFSGSGSGTDFILNIHPVEVEDIATYYCHHSWGIPMYTFGGGTKLEIKR
Reply text: < 1e-07 s⁻¹

Inquiry: What does the data say about its koff? Entry: humanized clone of 54.9D7 hH2L3 (antibody, V domains shown, Humanized; also called 54.9D7 H2L3) VH: QVQLVQSGAEVKKPGASVKVSCKASGYIFITYWMNWVRQAPGQGLEWVGQIFPASGTTYYAQKFQGRVTMTVDTSTSTVYMELSSLRSEDTAVYYCARTDFYRYDGGYALDYWGQGTLVTVSS VL: DIQLTQSPSSLSASVGDRATITCRASQSVSTSGYSSMHWYQQKPGKAPKLLIKYASDLESGVPSRFSGSGSGTDFTLTISSVQPEDFATYYCHHSWGIPMYTFGQGTKLEIKR
Reply text: < 1e-07 s⁻¹

Inquiry: What does the data say about its koff? Entry: humanized clone of 54.9D7 hH3L3 (antibody, V domains shown, Humanized; also called 54.9D7 H3L3) VH: QVQLVQSGAEVKKPGASVKLSCKASGYIFITYWMNWVRQAPGQGLEWVGQIFPASGTTYYAQKFQGRATLTVDTSTSTAYMELSSLRSEDTAVYYCARTDFYRYDGGYALDYWGQGTLLTVSS VL: DIQLTQSPSSLSASVGDRATITCRASQSVSTSGYSSMHWYQQKPGKAPKLLIKYASDLESGVPSRFSGSGSGTDFTLTISSVQPEDFATYYCHHSWGIPMYTFGQGTKLEIKR
Reply text: < 1e-07 s⁻¹

Inquiry: What does the data say about its koff? Entry: humanized clone of 54.9D7 hH1L3 (antibody, V domains shown, Humanized; also called 54.9D7 H1L3) VH: QVQLVQSGAEVKKPGASVKVSCKASGYIFITYWMNWVRQAPGQGLEWMGQIFPASGTTYYAQKFQGRVTMTRDTSTSTVYMELSSLRSEDTAVYYCARTDFYRYDGGYALDYWGQGTLVTVSS VL: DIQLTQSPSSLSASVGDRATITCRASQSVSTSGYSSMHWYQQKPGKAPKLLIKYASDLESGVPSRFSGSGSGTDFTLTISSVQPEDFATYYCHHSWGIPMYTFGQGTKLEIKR
Reply text: 3.75e-05 s⁻¹
